Target: GST-tagged ROR gamma ligand binding domain (LBD) (Homo sapiens, UniProt P51449)
Construct: purchased Invitrogen
Assay: TR-FRET assay for ROR gamma (LanthaScreen co-activator peptide recruitment)
Assay type: biochemical
Details: compound 1 μM; TR-FRET ratio 520/495, percent of control
Property measured: inhibition at 1 µM (%)
Answers are plain numbers, in %.

Examples with answers:
> print(dat)
                                smiles.data   property.measured  measured
1  CCS(=O)(=O)c1ccc(CC(=O)Nc2ccc(C#CC(C)(C)Oc3ccc(C(F)(F)F)cc3)cc2)cc1  inhibition at 1 µM      82.2
2  CCS(=O)(=O)c1ccc(CC(=O)Nc2ccc3c(c2)nc(C(C)(C)Oc2ccc(F)cc2F)n3CCF)cc1  inhibition at 1 µM      79.7
3  CCn1c(C2(Oc3ccc(NC(=O)Cc4ccc(S(=O)(=O)CC)cc4)cc3)CCC2)nc2cc(F)ccc21  inhibition at 1 µM      80.5
4  CCS(=O)(=O)c1ccc(CC(=O)Nc2ccc(OC3(c4ccc(Cl)cc4)CCC3)cc2)cc1  inhibition at 1 µM      81.9

Q: Tell me inhibition at 1 µM reported for `CCS(=O)(=O)c1ccc(CC(=O)Nc2ccc(OC3(c4ccc(Cl)cc4)CCOCC3)cc2)cc1`
A: 80.8

* * *

Molecular target: GST-tagged ROR gamma ligand binding domain (LBD) (Homo sapiens)
Sequence (P51449 269-508 limits assumed): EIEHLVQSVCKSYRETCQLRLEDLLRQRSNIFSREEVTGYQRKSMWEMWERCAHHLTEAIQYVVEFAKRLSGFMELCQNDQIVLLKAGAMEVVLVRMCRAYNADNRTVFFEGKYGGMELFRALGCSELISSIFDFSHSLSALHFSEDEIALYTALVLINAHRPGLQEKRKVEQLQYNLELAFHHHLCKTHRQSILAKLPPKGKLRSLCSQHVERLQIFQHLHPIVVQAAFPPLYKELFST
pIC50: −log10 of the molar value.
Property measured: pIC50

These recorded examples may help you get a feel for the data.
> print(dat)
                                smiles.data      measured
1  CCS(=O)(=O)c1ccc(CC(=O)Nc2ccc3c(c2)nc(C(C)(C)Oc2ccc(F)cc2F)n3CC2CC2)cc1        > 7.30
2  CCS(=O)(=O)c1ccc(CC(=O)Nc2ccc(C#CC(C)(C)Oc3ccc(C(F)(F)F)cc3)cc2)cc1        > 7.30
3  CCS(=O)(=O)c1ccc(CC(=O)Nc2ccc3c(c2)nc(C(C)(C)Oc2ccc(Cl)cc2F)n3C)cc1  7.00 to 7.30

Return reported pIC50 values for all items listed beneath this line.
1. CCS(=O)(=O)c1ccc(CC(=O)Nc2ccc(C#CC(C)(C)Oc3ccc(F)cc3F)cc2)cc1
2. CCS(=O)(=O)c1ccc(CC(=O)Nc2ccc(OC(C)(C)c3ncc(Cl)cc3Cl)cc2)cc1
3. CCS(=O)(=O)c1ccc(CC(=O)Nc2ccc(OC3(c4ccc(Cl)c(Cl)c4)CCOCC3)cc2)cc1

A:
["7.00 to 7.30", "> 7.30", "7.00 to 7.30"]

* * *

Target: GST-tagged ROR gamma ligand binding domain (LBD) (Homo sapiens)
Construct: purchased Invitrogen
Test: TR-FRET assay for ROR gamma (LanthaScreen co-activator peptide recruitment)
Format: biochemical
Settings: compound 1 μM; TR-FRET ratio 520/495, percent of control
Please respond with reported inhibition at 1 µM for every item in the list.
Numbers only, in %.

The examples below pair each entry with its known result.
> print(dat)
                                smiles.data                               test.system   property.measured  measured
1  CCS(=O)(=O)c1ccc(CC(=O)Nc2ccc(OC3(c4ccc(Cl)c(Cl)c4)CC3)cc2)cc1  GST-tagged ROR gamma ligand binding domain (LBD) (Homo sapiens)  inhibition at 1 µM      69.1
2  CCS(=O)(=O)c1ccc(CC(=O)Nc2ccc(C#CC(C)(C)Oc3ccc(F)c(Cl)c3)cc2)cc1  GST-tagged ROR gamma ligand binding domain (LBD) (Homo sapiens)  inhibition at 1 µM      70.7
3  CCS(=O)(=O)c1ccc(CC(=O)Nc2ccc3c(c2)nc(C(C)(C)Oc2ccc(F)cc2F)n3C(C)C)cc1  GST-tagged ROR gamma ligand binding domain (LBD) (Homo sapiens)  inhibition at 1 µM      82.7

Hi team, please reply with inhibition at 1 µM for each item in this list.
1. CCS(=O)(=O)c1ccc(CC(=O)Nc2ccc(OC(C)(C)c3ccc(Cl)c(F)c3)cc2)cc1
2. CCS(=O)(=O)c1ccc(CC(=O)Nc2ccc(C#CC(C)(C)Oc3c(F)cc(Cl)cc3F)cc2)cc1

A:
1. 74.4
2. 83.2

Quick batch: inhibition at 1 µM for everything below.
1. CCS(=O)(=O)c1ccc(CC(=O)Nc2ccc(OC3(c4ccc(Cl)c(F)c4)CCCCC3)cc2)cc1
2. CCS(=O)(=O)c1ccc(CC(=O)Nc2ccc(OC3(c4ccc(Cl)c(F)c4)CC3)cc2)cc1

A:
82.2
81.3

Answer for every listed entry: what is its inhibition at 1 µM? The entries follow.
1. CCS(=O)(=O)c1ccc(CC(=O)Nc2ccc3c(c2)nc(C(C)(C)Oc2ccc(F)cc2F)n3C2CC2)cc1
2. CCn1c(C2(Oc3ccc(NC(=O)Cc4ccc(S(=O)(=O)CC)cc4)cc3)CC2)nc2cc(Cl)ccc21
3. CCS(=O)(=O)c1ccc(CC(=O)Nc2ccc(OC(C)(C)c3ccc(F)cc3F)cc2)cc1
4. CCN(C(=O)C(C)(C)Oc1ccc(NC(=O)Cc2ccc(S(=O)(=O)CC)cc2)cc1)c1ccc(Cl)c(F)c1

A:
[89.2, 65.7, 66.9, 73]

Take each entry in turn and give its inhibition at 1 µM.
1. CCn1c(C(C)(C)Oc2c(F)cc(F)cc2F)nc2cc(NC(=O)Cc3ccc(S(=O)(=O)CC)cc3)ccc21
2. CCn1c(C(C)(C)Oc2ccc(F)c(F)c2)nc2cc(NC(=O)Cc3ccc(S(=O)(=O)CC)cc3)ccc21

A:
1: 87.3; 2: 86.5

* * *

Molecular target: GST-tagged ROR gamma ligand binding domain (LBD) (Homo sapiens, UniProt P51449)
Construct: purchased Invitrogen
Experiment: TR-FRET assay for ROR gamma (LanthaScreen co-activator peptide recruitment)
Assay type: biochemical
Details: compound 10 μM; TR-FRET ratio 520/495, percent of control
For each record, write down the corresponding inhibition at 10 µM.
Answers are plain numbers, in %.

> print(dat)
                                smiles.data    property.measured  unit.label  measured
1  CCS(=O)(=O)c1ccc(CC(=O)Nc2ccc(OC3(c4ccc(Cl)cc4Cl)CCCCC3)c(F)c2)cc1  inhibition at 10 µM           %        77
2  CCS(=O)(=O)c1ccc(CC(=O)Nc2ccc(OC3(c4ccc(Cl)cc4Cl)CCOCC3)c(F)c2)cc1  inhibition at 10 µM           %      79.3
3  CCS(=O)(=O)c1ccc(CC(=O)Nc2ccc(OC(C)(C)C(=O)N(C)c3ccc(Cl)cc3)cc2)cc1  inhibition at 10 µM           %      79.8

We now examine a further compound.
Q: Give the measured inhibition at 10 µM for `CCn1c(C2(Oc3ccc(NC(=O)Cc4ccc(S(=O)(=O)CC)cc4)cc3)CC2)nc2ccc(Cl)cc21`
A: 86

* * *

Target: GST-tagged ROR gamma ligand binding domain (LBD) (Homo sapiens)
Construct: purchased Invitrogen
Assay: TR-FRET assay for ROR gamma (LanthaScreen co-activator peptide recruitment)
Assay type: biochemical
Conditions: compound 10 μM; TR-FRET ratio 520/495, percent of control
Exercise: for every item that follows, state its recorded inhibition at 10 µM.
Give bare numbers, in %.

> print(dat)
                                   compound                               test.system  measured
1  CCS(=O)(=O)c1ccc(CC(=O)Nc2ccc(OC3(c4ccc(Cl)c(F)c4)CC3)c(F)c2)cc1 [Example 100]  GST-tagged ROR gamma ligand binding domain (LBD) (Homo sapiens)      87.2
2  CCS(=O)(=O)c1ccc(CC(=O)Nc2ccc(C#CC(C)(C)Oc3ccc(Cl)c(Cl)c3)cc2)cc1 [Example 62]  GST-tagged ROR gamma ligand binding domain (LBD) (Homo sapiens)      90.2
3  CCS(=O)(=O)c1ccc(CC(=O)Nc2ccc(OC3(c4ccc(Cl)c(Cl)c4)CC3)nc2)cc1 [Example 53]  GST-tagged ROR gamma ligand binding domain (LBD) (Homo sapiens)      76.5
4  CCS(=O)(=O)c1ccc(CC(=O)Nc2ccc(OC(C)(C)c3nc4ccc(Cl)cc4n3C)cc2)cc1 [Example 18]  GST-tagged ROR gamma ligand binding domain (LBD) (Homo sapiens)        91
5  CCS(=O)(=O)c1ccc(CC(=O)Nc2ccc(OC3(c4ccc(Cl)cc4F)CCOCC3)cc2)cc1 [Example 36]  GST-tagged ROR gamma ligand binding domain (LBD) (Homo sapiens)      74.7
6  CCn1c(C(C)(C)Oc2ccc(Cl)cc2F)nc2cc(NC(=O)Cc3ccc(S(=O)(=O)CC)cc3)ccc21 [Example 86]  GST-tagged ROR gamma ligand binding domain (LBD) (Homo sapiens)      93.8
7  CCS(=O)(=O)c1ccc(CC(=O)Nc2ccc(OC(C)(C)c3ccc(F)cc3Cl)cc2)cc1 [Example 8]  GST-tagged ROR gamma ligand binding domain (LBD) (Homo sapiens)      87.8
8  CCS(=O)(=O)c1ccc(CC(=O)Nc2cc(F)c(OC(C)(C)c3ccc(Cl)cc3Cl)c(F)c2)cc1 [Example 109]  GST-tagged ROR gamma ligand binding domain (LBD) (Homo sapiens)      17.2

For every record below, what is its inhibition at 10 µM?
1. CCS(=O)(=O)c1ccc(CC(=O)Nc2ccc(OC(C)(C)c3cc(Cl)cc(Cl)c3)cc2)cc1 [Example 5]
2. CCS(=O)(=O)c1ccc(CC(=O)Nc2ccc(C#CC(C)(C)Oc3c(F)cc(Cl)cc3F)cc2)cc1 [Example 75]

A:
1. 66.9
2. 84
